src = the Immune Epitope Database (IEDB)

Target: HLA-B*07:02
Assay: IEDB peptide-MHC binding, purified MHC/competitive/radioactivity; filed as Kd, often an IC50 or EC50 that approximates it; bounds were set here for any values at or beyond the usual limits of such assays
Settings: source organism: Mammarenavirus lassaense
Documented Kd across a set of sequences
Show the value, then the unit it is measured in.

FPAQPGLTSA : 0.0496 µM

# evaluate next
Suppose we examine the sequence YPNSSDLDM ; what Kd value has been reported?
0.233 µM

====

Biological target: HLA-A*68:02
Test: IEDB peptide-MHC binding, purified MHC/direct/fluorescence; filed as Kd, often an IC50 or EC50 that approximates it; bounds were set here for any values at or beyond the usual limits of such assays
Conditions: source organism: Influenza A virus (A/Memphis/1/1986(H3N2))
pKd: −log10 of the molar value.
reportedMetric: pKd

Would you kindly share the measured pKd for NHDGIQAGV ?
≤ 4.70
